B1: TPR t1 (parent)
chain: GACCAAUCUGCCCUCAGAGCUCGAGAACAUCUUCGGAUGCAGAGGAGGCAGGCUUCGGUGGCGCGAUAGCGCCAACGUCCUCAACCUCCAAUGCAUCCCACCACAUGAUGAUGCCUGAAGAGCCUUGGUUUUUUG

Variants of: B1
method.description: polymerase ribozyme fitness, log enrichment relative to wild type (log ratio); higher = more active; in vitro selection for triplet polymerase activity
The threshold is inclusive: polymerase ribozyme fitness (log ratio) of exactly -3 counts as label 1; values below receive label 0.

GACCAAUGUGCCCCCAGAGCUCGAGAACAUCUUCGGAUCCAGAGGAGGCAGGCUUCGGUGGCGCGAUAGCGCCAACGUCCUCAACCUCCAAUGCAUCCCCCCACAUGAUGAUGCCUGAAGAGCCUUGGUUUUUUG
label 1
GACCAACCUGCCCCCAGAGCUCGAGAACGUCUUCGGAUGCAGAGGAGGCAGGCUUCGGUGGCGCGAUAGCCCCAACGUCCUCAACCUCCAAUGCAUCCCACCACAUGAUGAUUCCUGAAGAGCCUUGGUUUUUUG
label 0
GACCAAUCUGCCCUCAGAGCUCGAGAACAUCUUUGGAUGCAGAGGAGGCAGGCUUCGGUGGCGCGAUAGCGCCAACGUCCUCAACCUCCAAUGCAUCCCACCACAUGAUAAUGCCUGAAGAGCCUUGGUUUUUUG
label 0
GACCAGUGUGUCCUCAGAGCUUGAGAACAUCUUCGGAUGCAGAGGAGGCAGGCUUCGGUGGCGCGAUAGCGCCAACGUUCUCAACCUCCAAUGCAUCCCACCACAUGAUGAUGCCUGAAGAGCCUUGGUUUUUUG
label 0
GACCAAUGUGCCCUCAGAGCUCGAGAACAUCUUCGGAUGCAGAGGAGGCAGGCUUCGGUGGCGUGAUAGCGCCAACGUCCUCAACCUCCAAUGCAUCCCACCACAUGAUGAUGCCUGAAGAGCCUUGGUUUUUUG
label 1
GACCAAUCUACCCUCAGAGCUCGAGAACAUCUUCGGAUGCAGAGGAGGCAUGCUUCGGUGGCGCGAUAGCUCCAACGUCCUCAACCUCCAAUGCAUCCCAACACAUGAUGAUGCCUGAAGAGCCUUGGUUUUUUG
label 0
GACCAAUCUGCCCUCUGAGCUCGAGAACAUCUUCGGAUGCAGAGGAGGCAGGCUUCGGUUGCGCGAUAGCGCCAACGUCCUCAACCGCCAAUGCAUCCCACCACAUGAUGAUGCCUGAAGAACCUCGGUUUUUUG
label 0
GACCAAUCUGCCCUCAGAGCUCGAGAACAUCUUCGGAUGCAGAGGAGGCAGGCUUCGCUGGCGCGAUAGCGCCAACGUCCUCAACCUCCAAUGCAUCCCACCACAUGAUGAUGCCUGAAUAGCCUUGGUUUUUUG
label 1
GACCAAUCUGCCCUCAGAGCGUGAGAACAUCUUCGGAUGCAGAGGAGGCAGGCUUCGGUGGCGCGAUAGCGCCAACGUCCUCAACCUCCAAGGCAUCCCACCAAAUGAAGAUGCCUGAAGAGCCUUGGUUUUUUG
label 0
GACCAAUCUGCCCUCAGAGCUCGAGAACAUCUUCGGAUGCAGAGGAUGCAGGCUUCGGUGGCGCGAUAGCGCCAACGUCCUCAACCUCCAAUGCAUCCCACCACAUGAUGAUGCCUGAAGCGACUUGAUUUUUUG
label 1

Check this variant for polymerase ribozyme fitness (log ratio) at or above -3: GACCAAUCAGUCCUCAGAGCUCGAGAACAUCUUCGGAUGCAGAGGAGGCAGACUUCGGUGGCGCGAUAGCGCCAACGUCCUCAACCUCCAAUGCAUCCCACCACAUGAUGAUGCCUGAAGAGCCUUGGUUUUUUG
label 1

Reported polymerase ribozyme fitness (log ratio) reaches at least -3 for GACCAAUCUGCCCUCAGAGCUCGAGAACAUCUUCGGAUGCAGAGGAGGCAGGCUUCGGUGGCGCGAUAGCGCCCACGUCCUCAACCUCCAAUGCAUCCCACCACAUGAUGAUGCCUGAACAGCCUUGGUUUUUUG ?
label 1

Entry GCCCAAUCUGCCCUCAGAGCUCGAGAACAUCUUCGGAUGCAGAGGAGGCAGGCUUCGGUGGCGCGAUAGCUCCAACGUCCUCAACCUCCAAUACAUCCCACCACAUGAAGAUGCCUGAACAGCCUUGGUUUUUUG : is its polymerase ribozyme fitness (log ratio) no less than -3?
label 0

// inclusive: polymerase ribozyme fitness (log ratio) at least -3? input: GACCAAUCUGCCCUCAGAGCUCGAGAACAUCUUCGGAUGCAGAGGAGGCAGGAUUCGGUAGCGCGAUAGCGCCAACGUCCUCAACCUCCAAUGCAUCCCACCACAUGAUGAUGCCUGAAGAGCCUUGGUUUUAUG
label 1

Entry GACCAAUCUGCCCUCAGAGCUCGAGAACAUCUUCGGAUGCAGAGGAGGCAGGGUUCGGUGGCGCGAUAGCGCCAACGUACUCAACCUCCAAUGCAUCCCACCACAUGAUGAUGCCUGAACAGCCUUGGUUUUAUG : is its polymerase ribozyme fitness (log ratio) no less than -3?
label 0

Please indicate if the recorded polymerase ribozyme fitness (log ratio) for GACCAAUCUGCCCUCAGAGCUCGUGAACAUCUUCGGAUGCAGCGGAGGCAGGCUUCGGUCGCGCGAUAGCGCCAACGUCCUCAUCCUCCAAUGCAUCCCACCACAUGAUCAUGCCUGAAGAGCCUUGGAUUUUUG meets or exceeds -3.
label 0

Say whether GACCCAUCUGCCCUCAGAGCUCGAGAACAUCUUCGGAUGCAGAGGAGGCAGGCUUCGGUGGCGCGAUAGCGCCAACGUCCUCAACCUCCAAUGCAUCCCACCACAAGAUGAUGCCUGAAGAGCCUUGGUUUUUUG shows polymerase ribozyme fitness (log ratio) of -3 or more.
label 1

Is reported polymerase ribozyme fitness (log ratio) greater than or equal to -3 here: GACCAAUCUGCUCUCAGAGCUCGAGAACAUCUUCGGAUGCAGAUGUGGCAGGCUUCGGUGGCGCGAUAGCGCCAACGUCCUCAAACUCCAAUGCAUCCCACCACAUGAUGAUGCCUGAAGAGCCUUGGUUUUUUG
label 0

# check: polymerase ribozyme fitness (log ratio) of GACCUAUCCGCCCUCAGAGCUCGAGAACAUCUUCGGAUGCAGAGAAGGCAGGCUUCGGUGGCGCGAUAGCGCCAACGUCCUCAACCUCCAAUGCAUCCCACCACAUGAUGAUGCCUGAAGAGCCUUGGUUUUUUG is greater than or equal to -3
label 1

Quick check, polymerase ribozyme fitness (log ratio) >= -3? GACCAAUCUGCCCGCAGAGCUCGAGAACAUCUUCGGAUGCAGGGGAGGCAGAAUUCGGUGGCGCGAUAGCGCCAACCUCCUCAACCUCCAAUGCAUCCCUCCACAUGAUGAUGCCUGAAGAGCCUUGGUUUUUUG
label 0

Form field: polymerase ribozyme fitness (log ratio) at least -3? Entry: GACCAAUCUGCCCUCAGAGCUCGAGAACAUCUUCGGAUGCGGAGGAGGCAGGCUUAGGUGGCGCGAUAGCGCCAACGUCCUCAACCUCCAAUGCAUCCCACUACAUGAUGAUGCCUGAAGAGCCUUGGUUUUUUG
label 0

Quick check: does GACCAAUCUGCUCUCAGAGCUCGAGAACAUCUUCGGAUGCAUAGGAGGCAGGCUUCGGUGGCGCGAUAGCGCAAACGUCCUCAACCUCCAAUGCAUCCCACCACAUGAUGAAGCCUGAAGAGCCUUGGUUUUUUC have polymerase ribozyme fitness (log ratio) greater than or equal to -3?
label 1

Determine whether this variant has polymerase ribozyme fitness (log ratio) no lower than -3: GACCAAUCUGCCGUCAGAGCUCGAGAACAUCUUCGGAUGCAGAGGAGGCAGGCUUGGGUGGCGCGAUAGCGCCAACGUCCUCAACGUCCAAUGCAUCACAAUACAUGAUGAUACCUGAAGAGCCUUGGUUUUUUG
label 0

Identify whether the reported polymerase ribozyme fitness (log ratio) of the following variant is -3 or greater: GACCAAUCUGCCCUCAGAGCUCGAGAACAUCUUCGGAUGCAGAGGAGGCAGGCUUCGGUGGCGCGAUAGCGCCAACGUCCUCAACCUCAAAUGCAUCCCACCACAUGAUUAUGCCUGAAGAGCCUUGGUUUUUUG
label 0

Record GACCAAUCUGCCCUCAGAGCUCUAGAACAUCUUCGGAUGCAGAGGAGGCAGGCUUCGGUGGCGCGAUAGCGCCAACGUCCUCAACCUCCAAUGCAUCCCACCACAUGAUGAUGCCUGAAGCGCCUUGGUUUUUUG ; criterion: polymerase ribozyme fitness (log ratio) no lower than -3. Met?
label 0

Please check the record GACCAAUCUGCCCUCAGAGCUCGAGAACAUCUUCGGAUGCAGAGGAGGCAGGUUUCGGUGGCGCGAUAACGCCAACGUCCUCAACCUCCAAUGCAUCCCACCCCAUGAUGAUGCCUGAAUAGCCUUGCUUGUUUG and state if its polymerase ribozyme fitness (log ratio) is at or above -3.
label 0

Decide: polymerase ribozyme fitness (log ratio) of GACCAAUCUGCCCUCAGAGCUCGAGAACAUCUUCGGAUGCAGAGGAGGCAGGCUUCGUUGGCGCGAUAGCGCCAACGUCCUCAACAUCCAAUGCAUCCCACCACAUGAUGAUGCCUUAAGAGCCUUGGUGUUUUG >= -3?
label 0

Record GACCAAUCUGCCCUCAGAGCUCGAGAACAUCUUCGGAUGCAGAAGAGGCAGGCUUCGGUGGCACGAUAGCGCCAACGUCCUCAUCCUCCAAUGCAUCCCACCACAUGAUGAUGCCUGAAGAGCCUUGGUUUUUUG ; criterion: polymerase ribozyme fitness (log ratio) no lower than -3. Met?
label 1

Is reported polymerase ribozyme fitness (log ratio) greater than or equal to -3 here: GACCAAUCUGCCCUCAGAGCUCGAGAACAUCUUCGGAUGCAGAGGAGGUAGGCUUCGGUGGCGCGAUAGCGGCAACGUCCUCAACCUCUAAUGCAUCCCACCACAUGAUGAUGCCUGAAGAGCCUUGGUUUUUUG
label 1

In plain terms: is recorded polymerase ribozyme fitness (log ratio) at least -3 for GACCAAUCUGCCCUCAGAGCUCGAGAACAUCUUCGGAUGCAGAGGAGGCAGGCUUCGGUGGCGCGAUAGCGCUAACGUCCUCAACCACCAAUGCAUCCCACCACAUGAUGAUGCAUGAAGAGCCUUGGUUUUUUG ?
label 1

Please tell me: is the variant GACCAAUCUGCCCUCAGAGCUCGAGAACAUCUUAGGAUGCAGAGGAGGCAGGCUUCGGUGGCGCGAUGGCGCCAACGUCCUCAACCUCCAAUGCAUCCCCCCACAUGAUGAUGCCUGAAGAGUCUUGGUUUUUUG at or over -3 in terms of polymerase ribozyme fitness (log ratio)?
label 0

Values were extracted from the RNAGym collection of RNA variant scans (doi:10.1073/pnas.2313332121).
